tested on: MS2 coat protein; assay: apparent KD of MS2 coat protein; designed switch direction (-1 OFF switch, 1 ON switch): 1; higher = weaker reporter binding; settings: input ligand: microRNA oligo, concentration not stated
MEASURE_NAME: apparent KD of MS2 coat protein (nM)
Numbers only, in nM.

Data request, read-out apparent KD of MS2 coat protein, for GUUAACUUGAGAGGAUAUGUAGAGGAUCACCCUACAGAAGGCUCUUUGGAGAGGAUAUGUAGAGGAUCACCCUACAGAAGGCUC [pwkr ssNG DX.6] (Eterna round: R96, puzzle: Same State NG 1) 33.7

Okay, next one:
Data request, read-out apparent KD of MS2 coat protein, for GGUGGGUUGCUACCGGCACAUGAGGAUCACCCAUGUUUUGGGAAGGAUAUGGUACCUAUUUGGUACCAGAAGGUCCCGUUGGUG [salish99_SSNG3_r04_708] (Eterna round: R96, puzzle: Same State NG 3) 176

Where do the numbers come from? From the supplement of paper PMC9170038.
